Recorded values, source ChEMBL document CHEMBL3868598.

target: Acetylcholinesterase (Homo sapiens, UniProt P22303)
Sequence (P22303 whole entry): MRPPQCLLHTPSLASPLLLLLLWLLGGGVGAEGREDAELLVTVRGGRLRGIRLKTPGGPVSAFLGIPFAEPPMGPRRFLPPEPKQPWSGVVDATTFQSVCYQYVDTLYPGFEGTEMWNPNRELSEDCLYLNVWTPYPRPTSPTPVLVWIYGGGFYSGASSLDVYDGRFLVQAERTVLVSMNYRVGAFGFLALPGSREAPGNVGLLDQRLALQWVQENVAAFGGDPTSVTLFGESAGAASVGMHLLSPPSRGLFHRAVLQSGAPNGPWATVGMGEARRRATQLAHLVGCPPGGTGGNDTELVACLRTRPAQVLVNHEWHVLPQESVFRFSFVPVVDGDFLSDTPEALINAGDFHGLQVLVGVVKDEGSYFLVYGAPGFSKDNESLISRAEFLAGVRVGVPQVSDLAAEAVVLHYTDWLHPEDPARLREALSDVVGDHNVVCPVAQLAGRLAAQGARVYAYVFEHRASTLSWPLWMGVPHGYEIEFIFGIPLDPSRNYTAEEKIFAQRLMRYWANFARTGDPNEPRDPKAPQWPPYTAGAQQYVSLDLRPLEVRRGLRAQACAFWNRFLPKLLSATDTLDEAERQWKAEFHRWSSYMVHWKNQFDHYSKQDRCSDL
MEASURE NAME: IC50 (nM)
Hi! Could you send only the number? It should be in nM, unit omitted.

INSERT INTO results (query_smiles, target_system, test_result) VALUES
  ('CC(C)Cc1ccc(/C=C2\Oc3ccccc3C2=O)cc1', 'Acetylcholinesterase (Homo sapiens, UniProt P22303)', 980),
  ('COc1ccc(/C=C2\Oc3ccccc3C2=O)cc1', 'Acetylcholinesterase (Homo sapiens, UniProt P22303)', 1260);

What the record says about S=C1/C(=C/c2ccccc2)Oc2ccccc21 : IC50 is 6390
